From: the supplement of paper PMC12317010

experiment: collision cross section in nitrogen (drift tube, single-field); higher = larger gas-phase ion size; settings: ion type: [M+H]; ion source: APCI; ion mode: Positive;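 also: chemical standards at 10 µM analysed by drift tube IMS-QTOF MS in about 3.95 torr nitrogen, mean of duplicate injections differing ≤1%, mass error below 10 ppm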
Structures can show the parent of a compound that is named as a salt.
VALUE_TYPE: collision cross section in nitrogen (Å²)
Write the answer as a number in Å², unit excluded.

Past entries and their recorded results:
* OCCCc1cccnc1 [3-(3-Pyridyl)-1-propanol] | 128
* CN(C)C(=O)Nc1cccc(C(F)(F)F)c1 [Fluometuron] | 150.5
* CCC(=O)Nc1cccc(N)c1 [N-(3-Aminophenyl)propanamide] | 135.8
* Cc1cc(C)nc(Nc2ccccc2)n1 [Pyrimethanil] | 143.4
* N#CC(CCc1ccc(Cl)cc1)(Cn1cncn1)c1ccccc1 (stereo not given) | 183.9

[Q] Query (compound): CN(C)C(=O)C(c1ccccc1)c1ccccc1 [Diphenamid] ; field requested: collision cross section in nitrogen
[A] 154.1

[Q] And what about the compound O=C(O)c1cc(N=Nc2ccc(S(=O)(=O)Nc3ccccn3)cc2)ccc1O [Sulfasalazine] ?
[A] 203.9

[Q] And what about the compound c1ccc2[nH]c(-c3cscn3)nc2c1 [Thiabendazole] ?
[A] 141.6

[Q] And what about the compound CC(C)(C#N)Nc1nc(Cl)nc(NC2CC2)n1 [Procyazine] ?
[A] 159.4

[Q] And what about the compound CN(C)CCCN1c2ccccc2CCc2ccccc21 [Imipramine hydrochloride] ?
[A] 165.8
